molecular target: Catechol O-methyltransferase (Homo sapiens) (UniProt P21964); assay: Confirmatory Screen for Target Class Profiling of Small Molecule Inhibitors of Methyltransferases (AID 1745852); settings: MTase-Glo luminescence, SAH detection, recombinant enzyme; measured here: COMT max response; stronger effect = lower value
Sequence (P21964 whole entry, looked up): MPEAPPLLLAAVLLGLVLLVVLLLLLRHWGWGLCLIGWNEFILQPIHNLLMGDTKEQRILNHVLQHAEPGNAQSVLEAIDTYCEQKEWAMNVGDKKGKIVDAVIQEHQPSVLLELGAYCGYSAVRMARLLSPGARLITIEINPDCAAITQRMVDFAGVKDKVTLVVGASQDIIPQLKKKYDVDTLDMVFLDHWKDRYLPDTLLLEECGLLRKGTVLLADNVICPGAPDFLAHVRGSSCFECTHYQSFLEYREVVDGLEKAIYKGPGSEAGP
measured-property: activity (%)
Number in %, nothing else.

Consider the following illustrative entries.
# record-smiles, tested-system, units, numeric-readout
measured = [
    ("Nc1c(NC/C=C\\COc2cc(CN3CCCCC3)ccn2)c(=O)c1=O", "Catechol O-methyltransferase (Homo sapiens) (UniProt P21964)", "%", -6.1),
    ("CC(C)N(CCC(=O)c1ccc2ccccc2c1)Cc1ccccc1", "Catechol O-methyltransferase (Homo sapiens) (UniProt P21964)", "%", 3.44),
    ("CN(C)c1cc2c(Nc3ccc4c(cnn4Cc4ccccc4)c3)ncnc2cn1", "Catechol O-methyltransferase (Homo sapiens) (UniProt P21964)", "%", 5.63),
]

Next item in the queue.
Asked: Fill in the blank: the reported activity of C=CC[N+]1([C@H]2C[C@H]3[C@@H]4CC[C@H]5C[C@H](OC(C)=O)[C@@H](N6CCCCC6)C[C@]5(C)[C@H]4CC[C@]3(C)[C@H]2OC(=O)CC)CCCCC1 is ____.
Given back: -2.74

----------
assay: qHTS to identify inhibitors of the type 1 interferon - major histocompatibility complex class I in skeletal muscle: primary screen against the NCATS Pharmaceutical Collection (AID 1347407); conditions: human skeletal muscle cells, IFN-b-induced MHC-I HiBiT luminescence, 24 h; series mostly up to 45.9 µM;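 further: luminescence of HiBiT knocked into endogenous HLA-B as interferon-induced MHC class I level; on the % scale 0 is the no-effect control and ±100 the full control effect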
Results filed as inconclusive are left out. Active and inactive are the calls of the source. Calls follow the shape of the dose curve; as a rule, active = well fitted inhibition curve with a large enough effect; inconclusive = small, poorly fitted or top-dose-only effect; inactive = flat fitted curve, though single readings scatter.
Use one of these outcomes when replying: active, inactive

# compound, label-class
rows = [
    ("C=C(C)C(=O)OCC(O)CO (configuration not stated)", "inactive"),
    ("Nc1c2ccccc2nc2ccccc12", "inactive"),
    ("NS(=O)(=O)c1ccc(N2CCCCS2(=O)=O)cc1", "inactive"),
    ("Cc1ccccc1C(=O)N1CC/C(=N\\OS(=O)(=O)O)c2ccc(Cl)cc21", "inactive"),
]

Attention now shifts to the item below.
Asked: Please share the test call associated with O=C(CCCCC(=O)Nc1c(I)cc(I)c(C(=O)O)c1I)Nc1c(I)cc(I)c(C(=O)O)c1I .
Given back: inactive

----------
test: A High-Content qHTS Against Drug Library for the Identification of Small Molecules that Inhibit DYT1 Early Onset Primary Dystonia-Associated Cell Pathology (AID 1645839); conditions: HEK293 Flp-In EGFP-delE TorsinA, punctate imaging, 48 h; series mostly up to 46.1 µM
Inconclusive results are not listed. The source made the active and inactive calls. The call rests on the fitted dose curve.
Use one of these outcomes when replying: 1 = active, 0 = inactive

See these solved cases before continuing.
# compound, label-class
data = [
    ("CO/N=C(/C(=O)N[C@@H]1C(=O)N2C(C(=O)O)=C(Cn3nnc(C)n3)CS[C@H]12)c1csc(N)n1", 0),
    ("COCCc1ccccn1", 0),
    ("Oc1ccccc1", 0),
    ("Cc1cccc(C)c1NC(=O)c1cc(S(N)(=O)=O)c(Cl)cc1O", 0),
    ("C1=CC2C3C=CC(C3)C2C1 (centres undefined)", 0),
    ("CCCCN(CCCC)C(C(N)=O)c1ccc(OC)cc1 (centres undefined)", 0),
]

Asked: Please share the test call associated with CCN1C(=O)c2ccccc2C1Nc1ccc(OCCN2CCCCC2)cc1 (centres undefined) .
Given back: 0

Asked: Please share the test call associated with CC(C)(C)C1CCC(CC2=C(O)c3ccccc3C(=O)C2=O)CC1 (centres undefined) .
Given back: 0

Asked: Please share the test call associated with COc1cc(C(=O)NC2CCCNC2)cc(OC)c1OC (centres undefined) .
Given back: 0

Asked: Please share the test call associated with O=C(CCCl)NCc1ccccc1 .
Given back: 0

Asked: Please share the test call associated with CC(=O)O[C@@H]1C(=O)O[C@@H]2[C@H]1OC(=O)[C@@H]2OC(C)=O .
Given back: 0

Asked: Please share the test call associated with CSCC[C@H](NC(=O)[C@H](Cc1c[nH]c2ccccc12)NC(=O)CCNC(=O)OC(C)(C)C)C(=O)N[C@@H](CC(=O)O)C(=O)N[C@@H](Cc1ccccc1)C(N)=O .
Given back: 0

Asked: Please share the test call associated with CC(C)(C)CC(=O)OCC(=O)[C@@]1(O)CC[C@H]2[C@@H]3CCC4=CC(=O)C=C[C@]4(C)[C@H]3[C@@H](O)C[C@@]21C .
Given back: 0

Asked: Please share the test call associated with O=C(O)[C@H](O)[C@@H](O)[C@H](O[C@@H]1O[C@H](CO)[C@H](O)[C@H](O)[C@H]1O)[C@H](O)CO .
Given back: 0

Asked: Please share the test call associated with CO/N=C(/C(=O)N[C@@H]1C(=O)N2C(C(=O)[O-])=C(C[n+]3ccn4ncccc43)CS[C@H]12)c1nsc(N)n1 .
Given back: 0

Asked: Please share the test call associated with CCCc1ccc(OCC(=O)N2CCN(C(=O)COc3ccc(CCC)cc3OC)CC2)c(OC)c1 .
Given back: 1

Asked: Please share the test call associated with CN1CCCN=C1/C=C/c1cccs1 .
Given back: 0

Asked: Please share the test call associated with C[C@H]1C[C@H]2[C@@H]3CCC4=CC(=O)C=C[C@]4(C)[C@H]3C(=O)C[C@]2(C)[C@@]1(O)C(=O)CO .
Given back: 0

Asked: Please share the test call associated with CCN(CC)C(=O)C1CN2CCc3cc(OC)c(OC)cc3C2CC1OC(C)=O (centres undefined) .
Given back: 0

Asked: Please share the test call associated with CCCc1c2oc(C(=O)O)cc(=O)c2cc2c(=O)cc(C(=O)O)n(CC)c12 .
Given back: 0

Asked: Please share the test call associated with CC(=O)N[C@@H](CCC(N)=O)C(=O)O .
Given back: 0

Asked: Please share the test call associated with CCCc1ncc(C(=O)O)s1 .
Given back: 0

Asked: Please share the test call associated with O=C(O)/C=C(\CC(=O)O)C(=O)O .
Given back: 0

Asked: Please share the test call associated with CCCCCC[C@@H](CCC)C(=O)O .
Given back: 0

----------
system: CRL-7250; assay: Cytotoxic Profiling of Annotated Libraries Using Quantitative High-Throughput Screening (AID 1296008); details: Five cell lines viability, CellTiter-Glo ATP luminescence, 48-72 h; stronger effect = lower value; further: on the % scale 0 is the no-effect control and ±100 the full control effect; nearly all actives have a fitted effect of over 60% in size
Results filed as inconclusive are left out.
Each entry below carries its reported max response.
Number in %, nothing else.

Consider the following illustrative entries.
# compound, measured-property, units, numeric-readout
data = [
    ("CNC[C@H](O)[C@@H](O)[C@H](O)[C@H](O)CO", "max response", "%", -2.73),
    ("CC1CC(=O)NN=C1c1ccc(NCC(C)(C)NCC(O)COc2cc(Cl)ccc2C#N)cc1 (configuration not stated)", "max response", "%", -11.5),
    ("O=C(O)c1ccc(OCCN2CCCCC2)cc1", "max response", "%", 4.52),
    ("CCc1cccc2c(CCO)c[nH]c12", "max response", "%", -8.62),
    ("CC(=O)N(CC(=O)N(C)C)c1ccccc1", "max response", "%", -29.6),
]

Asked: Fill in the blank: the reported max response of CC(=O)N(CC(O)CO)c1c(I)c(C(=O)NCCO)c(I)c(C(=O)NCC(O)CO)c1I (configuration not stated) is ____.
Given back: -7.11

Asked: Fill in the blank: the reported max response of C[C@@H]1CCC[C@H](C)N1CCCC(O)(c1ccccc1)c1ccccn1 (some centres not stated) is ____.
Given back: 3.63

----------
system: GB4; experiment: qHTS profiling for inhibitors of Plasmodium falciparum proliferation (AID 504749); further: nearly all actives have a fitted effect of over 60% in size; details: P. falciparum in erythrocytes, SYBR Green DNA, 72 h; series mostly up to 28.7 µM
Inconclusive results are not listed. Calls of active or inactive are those of the source. Calls follow the shape of the dose curve; as a rule, active = well fitted inhibition curve with a large enough effect; inconclusive = small, poorly fitted or top-dose-only effect; inactive = flat fitted curve, though single readings scatter.
Use one of these outcomes when replying: label 1 for active, label 0 for inactive

# record-smiles, label-class
records = [
    ("CCCCCCCCCCCCCCCC[n+]1ccccc1", "label 1"),
    ("CCCCCCCCCCCCCC[N+](C)(C)C", "label 1"),
    ("O=C(Nc1ccc(Cl)cc1)Nc1ccc(Cl)c(Cl)c1", "label 1"),
    ("Nc1c2ccccc2nc2ccccc12", "label 1"),
    ("Nc1ncnc2nc[nH]c12", "label 0"),
]

Asked: Please share the test call associated with O=[N+]([O-])c1ccc(O)c2ncccc12 .
Given back: label 1

Asked: Please share the test call associated with Nc1ccc2cc3ccc(N)cc3nc2c1 .
Given back: label 1

----------
experiment: qHTS assay for measurement of the activity of small molecule inhibitors on Zika virus induced Caspase-3 activity in human iPSC derived neural progenitor cells (hNPCs) (AID 1224857); details: hNPCs ZIKV-induced caspase-3/7, Caspase-Glo luminescence, 6 h; series mostly up to 45.7 µM; further: % of control where 0% means no effect; nearly all actives have a fitted effect of over 65% in size
Records with an inconclusive call do not appear. Active and inactive are the calls of the source. Calls come from the whole dose curve; as a rule, active = well fitted inhibition curve with a large enough effect; inconclusive = small, poorly fitted or top-dose-only effect; inactive = no such curve, though single readings can be large or run the other way.
measured-property: outcome

Consider the following illustrative entries.
# compound, result
data = [
    ("O=C1c2ccccc2CCc2ccccc21", "inactive"),
    ("Cc1nc(N)nc(N)c1-c1ccc(Cl)c(Cl)c1", "inactive"),
    ("CCN(CC)CCOc1ccc(/C(=C(\\Cl)c2ccccc2)c2ccccc2)cc1", "inactive"),
    ("CCCCC(=O)OCC(=O)[C@H]1[C@H](C)C[C@H]2[C@@H]3C[C@H](F)C4=CC(=O)C=C[C@]4(C)[C@@]3(F)[C@@H](O)C[C@@]21C", "inactive"),
    ("O=C(COCCOCCOCC(=O)Nc1c(I)cc(I)c(C(=O)O)c1I)Nc1c(I)cc(I)c(C(=O)O)c1I", "inactive"),
]

Asked: Fill in the blank: the reported outcome of CN1CC[C@H](c2c(O)cc(O)c3c(=O)cc(-c4ccccc4Cl)oc23)[C@H](O)C1 is ____.
Given back: inactive

Asked: Fill in the blank: the reported outcome of CC(=O)c1cc2ccccc2s1 is ____.
Given back: inactive

Asked: Fill in the blank: the reported outcome of O=C(O)c1[nH]n(-c2ccc(S(=O)(=O)O)cc2)c(=O)c1N=Nc1ccc(S(=O)(=O)O)cc1 is ____.
Given back: inactive

Asked: Fill in the blank: the reported outcome of O=C1CC2(CCCC2)CC(=O)N1CCNCC1COc2ccccc2O1 (stereo not given) is ____.
Given back: inactive

Asked: Fill in the blank: the reported outcome of CCCC(=O)c1cc(O)c(O)cc1O is ____.
Given back: inactive

Origin of the recorded values: PubChem BioAssay (NCATS)
